EC50 overview
- assayed system: histamine H2 -receptors (Cavia porcellus, UniProt P47747)
- Construct: isolated guinea pig atria suspended in an organ bath (50 ml)
- Sequence (P47747 whole entry): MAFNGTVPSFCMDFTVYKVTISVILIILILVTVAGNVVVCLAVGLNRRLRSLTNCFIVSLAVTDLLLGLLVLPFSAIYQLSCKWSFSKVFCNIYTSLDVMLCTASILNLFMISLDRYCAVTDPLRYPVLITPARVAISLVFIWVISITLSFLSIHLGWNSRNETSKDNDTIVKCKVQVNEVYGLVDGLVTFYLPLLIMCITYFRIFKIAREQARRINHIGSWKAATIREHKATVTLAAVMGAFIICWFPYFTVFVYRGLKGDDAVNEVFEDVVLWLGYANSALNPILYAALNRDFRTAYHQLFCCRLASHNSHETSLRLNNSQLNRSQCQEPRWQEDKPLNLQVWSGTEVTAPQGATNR
- assay remarks: In vitro inhibition of histamine induced tachycardia (positive chronotropic effect), isolated guinea pig atria
- protocol conditions: 32° C., pH 7.4, 30 minutes contact before histamine 10^-6 g.ml^-1
Respond numerically; units are nM and should not be typed.

Some solved cases for reference:
- compound: "N#CCCNC=Nc1ccc(-c2c[nH]cn2)cc1 [6 (j)]"
  EC50 / nM: 1600
- compound: "CCOCSCCNC=Nc1ccc(-c2c[nH]cn2)cc1 [8 (b)]"
  EC50 / nM: 320

The measured EC50 that COCCN=CNc1ccc(-c2c[nH]cn2)cc1 [Example 6] showed for histamine H2 -receptors (Cavia porcellus, UniProt P47747) is 588

The reported EC50 value, histamine H2 -receptors (Cavia porcellus, UniProt P47747), for C=CCNC=Nc1ccc(-c2c[nH]cn2)cc1C [6 (l)] reads 294

----------
Entries and their ED50
- assayed system: histamine H2 -receptors (Rattus norvegicus, UniProt P25102)
- Construct: from tissue; host or cells: stomach of the living, anaesthetised rat (in vivo)
- Sequence (P25102 whole entry): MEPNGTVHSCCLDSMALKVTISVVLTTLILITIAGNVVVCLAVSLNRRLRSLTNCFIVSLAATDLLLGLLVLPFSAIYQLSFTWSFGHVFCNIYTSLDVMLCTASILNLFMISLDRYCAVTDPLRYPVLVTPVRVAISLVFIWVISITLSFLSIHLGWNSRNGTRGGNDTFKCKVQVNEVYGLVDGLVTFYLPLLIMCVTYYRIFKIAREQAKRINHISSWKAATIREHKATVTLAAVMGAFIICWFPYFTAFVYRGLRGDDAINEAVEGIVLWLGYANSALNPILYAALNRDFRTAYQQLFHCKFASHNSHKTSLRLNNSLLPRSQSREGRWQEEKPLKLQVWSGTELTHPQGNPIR
- assay remarks: In vivo antisecretory activity in histamine-induced gastric secretion (stomach-perfused rat)
- protocol conditions: i.v., histamine 1 mg.kg^-1 hr^-1 intravenous, urethane anesthesia, values expressed taking the compound as a base
Your answer should be a plain number; it is taken to be in mg/kg.

# count of solved cases: 3
- compound: "CCOCSCCNC=Nc1ccc(-c2c[nH]cn2)cc1"
  endpoint label: "ED50"
  assay value: 0.083
- compound: "CCCCNC=Nc1ccc(-c2c[nH]cn2)cc1C"
  endpoint label: "ED50"
  assay value: 0.078
- compound: "CCCNC=Nc1ccc(-c2c[nH]cn2)cc1OC"
  endpoint label: "ED50"
  assay value: 0.059

ED50 in this record for CSCCNC=Nc1ccc(-c2c[nH]cn2)cc1 : 0.022

Recorded ED50 (compound C=CCNC=Nc1ccc(-c2c[nH]cn2)cc1C ): 0.09

// sample N#CCCNC=Nc1ccc(-c2c[nH]cn2)cc1 , its ED50 was 0.046

Sure, the documented ED50 for COCCN=CNc1ccc(-c2c[nH]cn2)cc1 is 0.05

Sample CCCNC=Nc1ccc(-c2c[nH]cn2)cc1Br ; ED50 observed: 0.117

// CC(O)CNC=Nc1ccc(-c2c[nH]cn2)cc1 (stereo not drawn) : ED50 value = 0.043

----------
Overview of recorded pEC50 for various molecules
- assayed system: histamine H2 -receptors (Cavia porcellus, UniProt P47747)
- Construct: isolated guinea pig atria suspended in an organ bath (50 ml)
- assay remarks: In vitro inhibition of histamine induced tachycardia (positive chronotropic effect), isolated guinea pig atria
- protocol conditions: 32° C., pH 7.4, 30 minutes contact before histamine 10^-6 g.ml^-1
Keep in mind that pEC50 stands for -log10 of concentration in molar terms.

Before answering, review these 4 worked examples.
- molecule: "CCCNC=Nc1ccc(-c2c[nH]cn2)cc1Br"
  pEC50: 6.46
- molecule: "CC(O)CNC=Nc1ccc(-c2c[nH]cn2)cc1 (centres unmarked)"
  pEC50: 5.90
- molecule: "CCCCNC=Nc1ccc(-c2c[nH]cn2)cc1C"
  pEC50: 6.51
- molecule: "CCCNC=Nc1ccc(-c2c[nH]cn2)cc1OC"
  pEC50: 6.22

--- query ---
Entry CSCCNC=Nc1ccc(-c2c[nH]cn2)cc1 , histamine H2 -receptors (Cavia porcellus, UniProt P47747) data, pEC50 value: 6.49

Taken from patent US4666932A.
